# study target: BCRP (Homo sapiens, UniProt Q9UNQ0)
# Sequence (Q9UNQ0 1-655): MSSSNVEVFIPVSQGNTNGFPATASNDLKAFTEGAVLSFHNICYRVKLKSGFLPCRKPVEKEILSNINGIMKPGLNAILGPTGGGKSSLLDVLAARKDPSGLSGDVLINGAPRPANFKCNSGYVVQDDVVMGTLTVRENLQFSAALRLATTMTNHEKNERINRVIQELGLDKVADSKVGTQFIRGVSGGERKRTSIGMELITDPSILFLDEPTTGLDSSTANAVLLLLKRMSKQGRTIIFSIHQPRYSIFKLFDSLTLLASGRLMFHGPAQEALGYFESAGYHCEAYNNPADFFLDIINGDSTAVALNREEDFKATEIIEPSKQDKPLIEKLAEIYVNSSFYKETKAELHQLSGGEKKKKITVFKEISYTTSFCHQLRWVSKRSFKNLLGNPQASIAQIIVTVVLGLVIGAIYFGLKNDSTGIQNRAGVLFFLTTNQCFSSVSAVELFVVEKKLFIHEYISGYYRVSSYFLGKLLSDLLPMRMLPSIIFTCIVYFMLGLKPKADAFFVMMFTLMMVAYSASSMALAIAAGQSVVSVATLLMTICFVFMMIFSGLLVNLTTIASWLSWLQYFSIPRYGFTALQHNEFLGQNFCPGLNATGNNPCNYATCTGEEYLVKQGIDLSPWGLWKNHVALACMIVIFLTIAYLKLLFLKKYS
# assay details: BCRP inhibition, membrane vesicles
endpoint label: IC50

# input Annotate the compound CCCN1CC(Oc2ccc([C@@H]3c4[nH]c5ccccc5c4C[C@@H](C)N3CC(C)(C)F)cc2)C1 [compound 21] with its measured IC50.
# output > 5 µM

###

# assay details: Single-dose pharmacokinetics, mouse
# Type: in vivo
# measurement setup: serum, po, 5 mg/kg
endpoint label: bioavailability (%)
Answers are plain numbers, in %.

# input Annotate the compound CCCN1CC(Oc2ccc([C@@H]3c4[nH]c5ccccc5c4C[C@@H](C)N3CC(C)(C)F)cc2)C1 [compound 21] with its measured bioavailability.
# output 72

###

# assay details: Mouse hepatocyte stability
# Assay type: in vitro ADME
# measurement setup: hepatocytes
Provide the recorded half-life for the entries that follow.
Numbers only, in h.

Use the examples below as a reference point.
INSERT INTO results (smiles_text, endpoint_label, reading) VALUES
  ('C[C@@H]1Cc2c([nH]c3ccccc23)[C@@H](c2ccc(OCCN3CC(CF)C3)cc2)N1CC(C)(C)F', 'half-life', 5.37),
  ('CCCN1CC(Oc2ccc([C@@H]3c4[nH]c5ccccc5c4C[C@@H](C)N3CC(F)(F)COC)cc2)C1', 'half-life', 1.27);

# input Annotate the compound CCCN1CC(Oc2ccc([C@@H]3c4[nH]c5ccccc5c4C[C@@H](C)N3CC(F)(F)CO)cc2)C1 with its measured half-life.
# output 3.83

###

# study target: ESR1 Asp538Gly (Homo sapiens, UniProt P03372, D538G)
# Sequence (P03372 whole entry D538G): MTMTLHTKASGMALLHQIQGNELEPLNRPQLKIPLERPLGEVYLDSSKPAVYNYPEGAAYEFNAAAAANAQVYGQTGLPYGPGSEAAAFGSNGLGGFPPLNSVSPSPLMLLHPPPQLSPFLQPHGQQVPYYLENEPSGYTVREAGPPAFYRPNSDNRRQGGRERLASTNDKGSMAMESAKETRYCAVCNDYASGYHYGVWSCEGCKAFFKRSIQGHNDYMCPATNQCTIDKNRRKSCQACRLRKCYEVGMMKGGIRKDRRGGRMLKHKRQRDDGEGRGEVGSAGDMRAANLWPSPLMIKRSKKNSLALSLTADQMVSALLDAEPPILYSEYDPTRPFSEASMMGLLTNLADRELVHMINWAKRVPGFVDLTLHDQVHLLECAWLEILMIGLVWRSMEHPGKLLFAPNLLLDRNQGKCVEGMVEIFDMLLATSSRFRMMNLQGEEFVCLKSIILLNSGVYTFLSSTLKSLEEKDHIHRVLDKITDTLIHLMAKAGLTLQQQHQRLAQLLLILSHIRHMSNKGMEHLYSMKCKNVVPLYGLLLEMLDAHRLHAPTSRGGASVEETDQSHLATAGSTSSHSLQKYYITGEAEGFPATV
# assay details: AP
endpoint label: pIC50
Give bare numbers, as −log10 of the molar value.

# input Send back ESR1 Asp538Gly (Homo sapiens, UniProt P03372, D538G) pIC50 of CCCN1CC(Oc2ccc([C@@H]3c4[nH]c5ccccc5c4C[C@@H](C)N3CC(C)(C)F)cc2)C1 [compound 21] only.
# output 7.50

###

# assay details: Single-dose pharmacokinetics, rat
# Type: in vivo
# measurement setup: Sprague-Dawley, serum, po, 5 mg/kg
endpoint label: Cmax (ng/mL)
Give bare numbers, in ng/mL.

# input Annotate the compound CCCN1CC(Oc2ccc([C@@H]3c4[nH]c5ccccc5c4C[C@@H](C)N3CC(C)(C)F)cc2)C1 [compound 21] with its measured Cmax.
# output 138
